test system: SF-268 CNS; experiment: NCI-60 one-dose screen, 48 h; conditions: 10 µM unless noted
The panel holds about 83,000 compounds, 20% with a hit somewhere; the sample as a whole holds those more often. Active and inactive are the calls of the source. Rule for the calls: active = growth percent below 10; inactive = the rest.
The categories you may choose from are active, inactive

Previously resolved entries follow.
molecule: COc1ccc(OC)c(/C=C/C(=O)c2c(C)nc3ccccc3c2/C=C/c2ccccc2)c1
system: SF-268 CNS
class_name: inactive
--
molecule: CCOc1ccc(Nc2ccnc3cc(Cl)ccc23)cc1
system: SF-268 CNS
class_name: inactive
--
molecule: COc1ccc(C2=C(c3cccc(OC)c3)C(=O)c3ccc(C)nc3C2=O)cc1
system: SF-268 CNS
class_name: inactive
--
molecule: COc1ccc(C(=O)Nc2ccc3nc(N4CCCCC4)cc(C)c3c2)cc1OC
system: SF-268 CNS
class_name: inactive
--
molecule: COc1cc(/C=C/C(=O)c2c(C)nc3ccccc3c2/C=C/c2ccccc2)cc(OC)c1OC
system: SF-268 CNS
class_name: inactive
--
molecule: COC(=O)c1ccc(NC(=O)CSc2nc3ccccc3c(=O)n2-c2ccccc2)cc1
system: SF-268 CNS
class_name: inactive

INPUT: Test call for this molecule, please: CCCCCCCCCCOC(=O)c1ccccc1C(=O)OCCCC
OUTPUT: inactive

INPUT: Outcome logged for COc1ccc(C2Nc3ncnc(N)c3N=C3c4ccccc4C(=O)C32)cc1 (centres undefined) in this assay:
OUTPUT: inactive

INPUT: // param item: COc1ccc2occ(C3=C(c4c[nH]c5ccccc45)C(=O)NC3=O)c2c1 ; yields the recorded call
OUTPUT: inactive

INPUT: Please indicate how the test categorized CN1C(=O)N(C)C2(c3ccccc3)n3c(s/c(=C\c4ccccc4)c3=O)=NNC12c1ccccc1 (centres undefined) .
OUTPUT: inactive

INPUT: Which outcome was entered for the molecule COC(=O)/C(CCC=C(C)C)=C1\[C@@H](OC(C)=O)C[C@@]2(C)[C@H]1CC(=O)N[C@H]1[C@@]3(C)CCNC(=O)[C@@H](C)[C@@H]3CC[C@@]12C in this test?
OUTPUT: inactive

----------
test system: T-47D breast; assay: NCI-60 one-dose screen, 48 h; conditions: 10 µM unless noted
About 83,000 compounds went through this panel and 20% of them were active in at least one assay; those are over-represented in the sample as a whole. The source made the active and inactive calls. The calls were made as follows: active = growth percent below 10; inactive = the rest.
Respond with a class label; see y for active, n for inactive

molecule: C=C1C(=O)O[C@H]2[C@H]1CC/C(COC(=O)/C=C\C(=O)O)=C\CC[C@@]1(C)O[C@@H]21
system: T-47D breast
class_name: n
--
molecule: CCOC(=O)c1cnc2c(C)cccc2c1Nc1ccc(C(C)=O)cc1
system: T-47D breast
class_name: y

INPUT: # lookup: test call for CC1CCCCN1CCCNC(=O)c1ccc2c(c1)sc1nc(-c3ccc(F)cc3)cn12 (configuration not stated)
OUTPUT: n

INPUT: Assay outcome for COc1cc(/C=C2\CN(S(=O)(=O)c3ccccc3)C/C(=C\c3cc(CN4CCCC4)c(O)c(OC)c3)C2=O)cc(CN2CCCC2)c1O : what was it?
OUTPUT: n

INPUT: How was COC(=O)/C(CCC=C(C)C)=C1\[C@@H](OC(C)=O)C[C@@]2(C)[C@H]1C[C@@H](O)[C@H]1[C@@]3(C)CC[C@H](NCCCNCCCCNCCCN)[C@@H](C)[C@@H]3CC[C@@]12C classified in this test?
OUTPUT: n

INPUT: What outcome does the record of this test show for O=C(CN1C=NC2C(N3CCOCC3)=NC=NC21)c1ccc(Br)cc1 (configuration not stated) ?
OUTPUT: n

INPUT: Dear all, I need the recorded test outcome for CCOc1cccc(/C=N\Nc2nc(=O)cc(C(=O)OC)s2)c1O , thank you.
OUTPUT: n

INPUT: Could you please tell me the result logged for Oc1c(CN2CCN(c3ccccc3F)CC2)cc(Br)c2cccnc12 in this assay?
OUTPUT: n

INPUT: What outcome does the record of this test show for CN1C(=O)N(C)C2C1NN=c1s/c(=C\c3ccc(Cl)cc3Cl)c(=O)n12 (configuration not stated) ?
OUTPUT: n

INPUT: How did this test come out for COc1cc(C=C2C(=O)N(C)C(=O)N(C)C2=O)cc(CN2CCCCC2)c1O ?
OUTPUT: n

INPUT: Recorded test outcome, item O=C(Nc1ccc(Br)cc1F)c1cc(F)ccc1O
OUTPUT: y

INPUT: Tell me the recorded outcome of this test for O=c1c2cccc(F)c2sc2c(N3CCNCC3)nc3ccccc3c12 .
OUTPUT: n

INPUT: Entry O=C(CSc1ncccc1C(=O)O)Nc1ccc(Oc2ccccc2)cc1 : call = ?
OUTPUT: n

INPUT: Fill in: this test's call for O=C(O)CCCN1C(=O)C2C3CCC(C3)C2C1=O (configuration not stated) is ___
OUTPUT: n

INPUT: Called result for O=C(CCN1C(=O)c2ccccc2C1=O)Nc1ccc(Cl)cc1
OUTPUT: n

INPUT: Just curious, what result did O=c1oc2ccc(I)cc2c(=O)n1-c1ccc(Cl)cc1F get here?
OUTPUT: y

INPUT: Answer briefly: the call reported for CC(=O)c1ccc(NC(=O)Nc2ccc(S(=O)(=O)Nc3ccc(Cl)nn3)cc2)cc1 in this assay.
OUTPUT: n

INPUT: Any idea what this test logged for Cn1c(/C=C(\C#N)c2ccccc2)nc2c(N3CCOCC3)nc(Cl)nc21 ?
OUTPUT: y

INPUT: Assay result, entry CCOc1cccc(/C=N/NC(=O)C(=O)Nc2cccc(C(F)(F)F)c2)c1O — outcome?
OUTPUT: n

These data points were gathered from PubChem BioAssay (NCI).
